The entries below come with measured glycan array binding signal (z-score) values attached.
Molecular target: Fuc(a1-2)Gal(b1-3)GlcNAc(b1-2)Man(a1-3)[Fuc(a1-2)Gal(b1-3)GlcNAc(b1-2)Man(a1-6)]Man(b1-4)GlcNAc(b1-4)GlcNAc
Experiment: glycan array binding signal (z-score within array); higher = stronger binding
Conditions: glycan notation: IUPAC condensed, linker removed
This is one part of a sample in which the strongest signals are shown more often than they occur.
OUTCOME MEASURE: glycan array binding signal (z-score)

binder="MRCL (Homo sapiens), NP_872425.1 (protein) ATKVHFPFHTCDLRIDGDCFMVSSEADTYYRARMKCQRKGGVLAQIKSQKVQDILAFYLGRLETTNEVTDSDFETRNFWIGLTYKTAKDSFRWATGEHQAFTSFAFGQPDNHGLVWLSAAMGFGNCVELQASAAFNWNNQRCKTRNRYICQFAQEHISRWGPGS" outcome_measure="glycan array binding signal (z-score)" measured_number=3.42
binder="EULS2 M2 (Oryza sativa) (protein) MVYCRANPNYAMTARNGAVVLAPANPKDEYQHWIKDMRWSTSIKDEEGYPAFALVNKATGQAIKHSLGQSHPVRLVPYNPEVMDESVLWTESRDVGNGFRCIRMVNNIYLNFDAFHGDKYHGGVRDGTDIVLWKLCEGDSQRWKIQPYYILEQKLISEEDLNSAVDHHHHHH" outcome_measure="glycan array binding signal (z-score)" measured_number=2.57
binder="CPA (Cicer arietinum) (protein) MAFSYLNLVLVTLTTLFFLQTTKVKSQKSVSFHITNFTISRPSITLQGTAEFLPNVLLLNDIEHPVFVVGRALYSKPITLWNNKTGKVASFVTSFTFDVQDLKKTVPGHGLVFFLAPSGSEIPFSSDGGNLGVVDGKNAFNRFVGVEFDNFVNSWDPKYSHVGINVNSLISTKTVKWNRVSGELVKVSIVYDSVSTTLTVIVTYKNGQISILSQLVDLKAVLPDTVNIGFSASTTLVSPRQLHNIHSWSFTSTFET" outcome_measure="glycan array binding signal (z-score)" measured_number=3.79
binder="Clec12b (Mus musculus), Q149M0 (protein) MSDEVTYATLMLQDSARVRGNQDGNNLRKEGHPAQSSLWRGAALSLMTLCLVLVTGLVTLATMFLQVSNDINSDSEKLSQLQKSIHPQQDNLSESLNSSRKSLTEESLQSQISALLERQEQMATKLCKEFLIHASDHKCNPCPKTWQWYGNSCYYFSINEEKSWSDSRKDCIDKNATLVKIDSTEERDLLQSQLSLTFSFFWLGLSWNSSGRNWLWEDGSFPPPTLFSDKELASFNGSRDCAYFERGNIYASRCSAEIPWICEKTASLVKTEDLD" outcome_measure="glycan array binding signal (z-score)" measured_number=2.66
